Target Of Assay: T1, recombinant KDM5C (UniProt P41229 1-765)
T1 chain: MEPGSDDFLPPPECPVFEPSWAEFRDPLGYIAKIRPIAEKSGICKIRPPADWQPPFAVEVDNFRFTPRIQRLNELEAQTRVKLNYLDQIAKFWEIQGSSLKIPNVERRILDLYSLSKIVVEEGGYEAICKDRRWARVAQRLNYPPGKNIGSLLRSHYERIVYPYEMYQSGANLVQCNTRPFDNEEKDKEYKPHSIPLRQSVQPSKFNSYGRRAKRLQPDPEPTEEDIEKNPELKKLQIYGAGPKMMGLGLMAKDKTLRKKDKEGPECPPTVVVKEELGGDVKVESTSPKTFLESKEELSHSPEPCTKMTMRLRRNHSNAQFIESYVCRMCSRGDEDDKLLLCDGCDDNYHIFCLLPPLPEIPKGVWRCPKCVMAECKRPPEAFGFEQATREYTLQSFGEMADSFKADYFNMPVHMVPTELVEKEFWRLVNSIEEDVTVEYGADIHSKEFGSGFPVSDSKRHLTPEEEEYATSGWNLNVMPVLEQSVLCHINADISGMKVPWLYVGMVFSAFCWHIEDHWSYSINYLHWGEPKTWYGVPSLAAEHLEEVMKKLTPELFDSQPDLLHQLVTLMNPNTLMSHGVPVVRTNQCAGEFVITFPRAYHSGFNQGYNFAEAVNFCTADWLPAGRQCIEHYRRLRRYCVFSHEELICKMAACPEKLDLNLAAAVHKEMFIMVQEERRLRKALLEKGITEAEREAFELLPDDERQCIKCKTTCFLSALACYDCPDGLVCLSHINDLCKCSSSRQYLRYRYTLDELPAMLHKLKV
Procedure Details: inhibition of recombinant KDM5 demethylase activity (H3K4me3 peptide); legend calls it IC50
pEC50: −log10 of the molar value. Where no end group is shown, it is not given here.
Observable: pEC50

>>> assay_result("TEDSKTHHH (also: fluorescein label in FP assay, end not given here) [EP4]")
9.01
